Molecular target: pERK1/2 (Thr202/Tyr204), NCI-1H358 (KRAS G12C) (Homo sapiens, UniProt P01116, G12C)
Construct: pERK1/2 HTRF read-out
Sequence (P01116 1-188 isoform P01116-2 G12C): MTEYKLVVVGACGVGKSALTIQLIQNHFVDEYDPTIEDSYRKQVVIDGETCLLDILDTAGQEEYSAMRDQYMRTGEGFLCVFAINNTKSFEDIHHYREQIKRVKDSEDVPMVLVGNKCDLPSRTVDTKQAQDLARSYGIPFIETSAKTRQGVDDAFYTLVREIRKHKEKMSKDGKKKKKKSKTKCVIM
Test: Assay of intracellular pERK1/2 (Thr202/Tyr204) phosphorylation in NCI-H358 cells (KRAS G12C)
Format: cell-based
Conditions: pERK1/2, 2 days, read-out: NCI-H358 (KRAS G12C) IC50
experimental endpoint: IC50 (nM)

molecule	experimental target	experimental endpoint	measurement unit	qualifying sign	measurement
CC(c1cccnc1N)N1c2nc(OC[C@@]34CCCN3C[C@H](F)C4)nc3c(F)c(-c4c5ccccc5cc5[nH]ncc45)nc(c23)O[C@H]2CCC[C@@H]21 (some centres unmarked) [Compound 398]	pERK1/2 (Thr202/Tyr204), NCI-1H358 (KRAS G12C) (Homo sapiens, UniProt P01116, G12C)	IC50	nM	=	212
C#Cc1c(F)ccc2cc(O)cc(-c3nc4c5c(nc(OC[C@@]67CCCN6C[C@H](F)C7)nc5c3F)N(C(C)c3cccnc3N)CCO4)c12 (some centres unmarked) [Compound 259]	pERK1/2 (Thr202/Tyr204), NCI-1H358 (KRAS G12C) (Homo sapiens, UniProt P01116, G12C)	IC50	nM	=	0.9
CC(c1cccnc1N)N1CCOc2nc(-c3cc(O)cc4ccc(F)c(F)c34)c(F)c3nc(OC[C@@H]4CCCN4C)nc1c23 (single isomer, unassigned) [Compound 41]	pERK1/2 (Thr202/Tyr204), NCI-1H358 (KRAS G12C) (Homo sapiens, UniProt P01116, G12C)	IC50	nM	=	223
[2H]C([2H])(Oc1nc2c3c(nc(-c4cc(O)cc(Cl)c4C4CC4)c(F)c3n1)OCCN2[C@H](C)c1cccnc1N)[C@@H]1C[C@@H](F)CN1C([2H])([2H])[2H] (single isomer, unassigned) [Compound 142]	pERK1/2 (Thr202/Tyr204), NCI-1H358 (KRAS G12C) (Homo sapiens, UniProt P01116, G12C)	IC50	nM	>	100
Cc1c(F)c(N)cc(-c2nc3c4c(nc(OC[C@@]56CCCN5C[C@H](F)C6)nc4c2F)N(C(C)c2cccnc2N)CCO3)c1Cl (some centres unmarked) [Compound 204]	pERK1/2 (Thr202/Tyr204), NCI-1H358 (KRAS G12C) (Homo sapiens, UniProt P01116, G12C)	IC50	nM	=	1

----------
Biological target: pERK1/2 (Thr202/Tyr204), NCI-1H358 (KRAS G12C) (Homo sapiens, UniProt P01116, G12C)
Construct: pERK1/2 HTRF read-out
Experiment: Assay of intracellular pERK1/2 (Thr202/Tyr204) phosphorylation in NCI-H358 cells (KRAS G12C)
Format: cell-based
Conditions: pERK1/2, 2 days, read-out: NCI-H358 (KRAS G12C) IC50

compound	IC50
Cc1cc(N)cc(-c2nc3c4c(nc(OC[C@@]56CCCN5C[C@H](F)C6)nc4c2F)N([C@H](C)c2cccnc2N)CCCO3)c1C(F)(F)F (single isomer, unassigned)	69 nM
CNc1ncccc1C(C)N1CCOc2nc(-c3cc(N)c(F)c(C)c3C(F)(F)F)c(F)c3nc(OC[C@@]45CCCN4C[C@H](F)C5)nc1c23 (single isomer, unassigned) [Compound 265]	> 100 nM
Cc1cc(N)cc(-c2nc3c4c(nc(OC[C@@]56CCCN5C[C@H](F)C6)nc4c2F)N(C(C)c2cccnc2N)[C@@H](C)CO3)c1C(F)(F)F (some centres unmarked) [Compound 262]	28 nM
[2H]C1([2H])CC[C@@]2(COc3nc4c5c(nc(-c6cc(N)cc(C)c6C(F)(F)F)c(F)c5n3)OCCN4C(C)c3cccnc3N)C[C@@H](F)CN12 (some centres unmarked)	0.2 nM
Cc1c(F)c(N)cc(-c2nc3c4c(nc(OC[C@@]56CCCN5C[C@H](F)C6)nc4c2F)N(C(C)c2cccnc2N)C[C@H](C)O3)c1C(F)(F)F (single isomer, unassigned) [Compound 254]	2 nM

// data source = patent US20260356851A1
